Catalogue of t½ readings, one per entry.
Target: T1, RSV-F.mmh (Respiratory Syncytial Virus)
T1 construct: also called recombinant RSV-F; soluble monomeric RSV-F
Experiment: SPR (Biacore), mAb captured via Fc, soluble RSV-F.mmh injected, 25 C
Response body: numeric value in min, unit text excluded.

Answered examples (2):
binder	result units	t½
H1H3589P (antibody, V domains shown) VH: EVQLVESGGGLVQPGGSLRLSCEASGFTFSTYWMSWVRQAPGKGLEWVANIKQDGSVKYFVDSVKGRFTVSRDNAKNSLYLQMNSLRAEDTALYHCARERHRGSYYGYYDGMDVWGQGTTVTVSS VL: DIQMTQSPSSLSASVGDRVTITCRASQNIDIYLNWYQERPGKAPNLLIYAASSLQSGVPSRFSGSGSGTDFTLTISSLQPEDFATYYCQQSYNTPFTFGGGTKVEIK	min	1
H1H3583P (antibody, V domains shown) VH: QVQLVQSGAEVKKSGSSVKVSCKASGGTFSSYAISWVRQAPGQGLEWMGGIIPIFGTGNYAQKFQGRVTITTDESTSTAYMELSSLRSEDTAVYYCARDSSSSPRYYGMDVWGHGTTVTVSS VL: EIVLTQSPATLSLSPGERATLSCRASQSVTSYLAWYQQKPGQAPRLLIYDVSKRATGIPARFSGSGSGTDFTLTISSLEPEDFATYYCQQRSNWPPTFGQGTRLEIK	min	4

Turning now to a further record.
Req: So what does the record say about t½ for H1H3592P (antibody, V domains shown) VH: EVQLVESGGDLVQPGRSLRLSCVASGFTFDDYAMHWVRQAPGKGLEWVSGVSWSGSTVGYADSVKGRFTVSRDNAQKSLYLQMNSLRAEDTALYYCVKDAYKWNYYYYGLDVWGQGTTVTVSS VL: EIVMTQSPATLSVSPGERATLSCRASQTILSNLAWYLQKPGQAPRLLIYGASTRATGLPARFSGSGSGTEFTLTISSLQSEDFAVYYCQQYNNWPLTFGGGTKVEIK ?
Resp: 25
